The origin of these recorded values is ChEMBL document CHEMBL1671716.

Parameter Activity: see the listing below.
Tested on: Prevotella buccae
protocolText: Antimicrobial activity against Prevotella buccae assessed as percent resistant isolates after 48 hrs by agar dilution method
Assay type: functional, Segatella buccae
endpointLabel: Activity

>>> measuredvalue("CO[C@@]1(NC(=O)C2SC(=C(C(N)=O)C(=O)O)S2)C(=O)N2C(C(=O)O)=C(CSc3nnnn3C)CS[C@@H]21 (stereo partly drawn)")
"17%"
>>> measuredvalue("O=C(N[C@H](CO)[C@H](O)c1ccc([N+](=O)[O-])cc1)C(Cl)Cl")
"0%"
>>> measuredvalue("Cc1ncc([N+](=O)[O-])n1CCO")
"0%"
>>> measuredvalue("C[C@@H](O)[C@H]1C(=O)N2C(C(=O)O)=C(S[C@@H]3CN[C@H](C(=O)N(C)C)C3)[C@H](C)[C@H]12")
"0%"
>>> measuredvalue("C[C@@H](O)[C@H]1C(=O)N2C(C(=O)O)=C(SCCNC=N)C[C@H]12 [IMIPENEM ANHYDROUS]")
"0%"
>>> measuredvalue("CO[C@@]1(NC(=O)Cc2cccs2)C(=O)N2C(C(=O)O)=C(COC(N)=O)CS[C@@H]21")
"0%"
>>> measuredvalue("CCN1CCN(C(=O)N[C@@H](C(=O)N[C@@H]2C(=O)N3[C@@H]2SC(C)(C)[C@@H]3C(=O)O)c2ccccc2)C(=O)C1=O")
"11%"
>>> measuredvalue("COc1c(N2C[C@@H]3CCCN[C@@H]3C2)c(F)cc2c(=O)c(C(=O)O)cn(C3CC3)c12")
"11%"

----------
Parameter Activity: see the listing below.
System: Parvimonas micra
protocolText: Antimicrobial activity against Peptostreptococcus micros assessed as percent susceptible isolates after 48 hrs by agar dilution method
Assay type: functional
endpointLabel: Activity (%)

>>> measuredvalue("COc1c(N2C[C@@H]3CCCN[C@@H]3C2)c(F)cc2c(=O)c(C(=O)O)cn(C3CC3)c12")
8
>>> measuredvalue("CO[C@@]1(NC(=O)Cc2cccs2)C(=O)N2C(C(=O)O)=C(COC(N)=O)CS[C@@H]21")
0
>>> measuredvalue("CCC[C@@H]1C[C@@H](C(=O)N[C@@H]([C@H]2O[C@H](SC)[C@H](O)[C@@H](O)[C@H]2O)[C@H](C)Cl)N(C)C1")
23
>>> measuredvalue("Cc1ncc([N+](=O)[O-])n1CCO")
0
>>> measuredvalue("O=C(N[C@H](CO)[C@H](O)c1ccc([N+](=O)[O-])cc1)C(Cl)Cl")
0
>>> measuredvalue("C[C@@H](O)[C@H]1C(=O)N2C(C(=O)O)=C(S[C@@H]3CN[C@H](C(=O)N(C)C)C3)[C@H](C)[C@H]12")
0
>>> measuredvalue("C[C@@H](O)[C@H]1C(=O)N2C(C(=O)O)=C(SCCNC=N)C[C@H]12 [IMIPENEM ANHYDROUS]")
0
>>> measuredvalue("CO[C@@]1(NC(=O)C2SC(=C(C(N)=O)C(=O)O)S2)C(=O)N2C(C(=O)O)=C(CSc3nnnn3C)CS[C@@H]21 (some centres undefined)")
31
>>> measuredvalue("CCN1CCN(C(=O)N[C@@H](C(=O)N[C@@H]2C(=O)N3[C@@H]2SC(C)(C)[C@@H]3C(=O)O)c2ccccc2)C(=O)C1=O")
0

----------
Tested on: Finegoldia magna
protocolText: Antimicrobial activity against Finegoldia magna assessed as percent resistant isolates after 48 hrs by agar dilution method
Assay type: functional
endpointLabel: Activity (%)

>>> measuredvalue("C[C@@H](O)[C@H]1C(=O)N2C(C(=O)O)=C(SCCNC=N)C[C@H]12 [IMIPENEM ANHYDROUS]")
0
>>> measuredvalue("C[C@@H](O)[C@H]1C(=O)N2C(C(=O)O)=C(S[C@@H]3CN[C@H](C(=O)N(C)C)C3)[C@H](C)[C@H]12")
0
>>> measuredvalue("Cc1ncc([N+](=O)[O-])n1CCO")
0
>>> measuredvalue("COc1c(N2C[C@@H]3CCCN[C@@H]3C2)c(F)cc2c(=O)c(C(=O)O)cn(C3CC3)c12")
27

----------
Parameter MIC50: see the listing below.
Tested on: Eggerthella lenta
protocolText: Antimicrobial activity against Eubacterium lentum after 48 hrs by agar dilution method
Assay type: functional
endpointLabel: MIC50 (µg/mL)

>>> measuredvalue("CO[C@@]1(NC(=O)C2SC(=C(C(N)=O)C(=O)O)S2)C(=O)N2C(C(=O)O)=C(CSc3nnnn3C)CS[C@@H]21 (some centres undefined)")
4
>>> measuredvalue("CO[C@@]1(NC(=O)Cc2cccs2)C(=O)N2C(C(=O)O)=C(COC(N)=O)CS[C@@H]21")
2
>>> measuredvalue("CCC[C@@H]1C[C@@H](C(=O)N[C@@H]([C@H]2O[C@H](SC)[C@H](O)[C@@H](O)[C@H]2O)[C@H](C)Cl)N(C)C1")
0.06
>>> measuredvalue("C[C@@H](O)[C@H]1C(=O)N2C(C(=O)O)=C(SCCNC=N)C[C@H]12 [IMIPENEM ANHYDROUS]")
0.06

----------
Test system: Bacteroides caccae
protocolText: Antimicrobial activity against Bacteroides caccae assessed as percent resistant isolates after 48 hrs by agar dilution method
Assay type: functional
endpointLabel: Activity (%)

>>> measuredvalue("CO[C@@]1(NC(=O)C2SC(=C(C(N)=O)C(=O)O)S2)C(=O)N2C(C(=O)O)=C(CSc3nnnn3C)CS[C@@H]21 (stereo not given in full)")
86
>>> measuredvalue("C[C@@H](O)[C@H]1C(=O)N2C(C(=O)O)=C(SCCNC=N)C[C@H]12 [IMIPENEM ANHYDROUS]")
4
>>> measuredvalue("O=C(N[C@H](CO)[C@H](O)c1ccc([N+](=O)[O-])cc1)C(Cl)Cl")
0
>>> measuredvalue("CO[C@@]1(NC(=O)Cc2cccs2)C(=O)N2C(C(=O)O)=C(COC(N)=O)CS[C@@H]21")
7
>>> measuredvalue("C[C@@H](O)[C@H]1C(=O)N2C(C(=O)O)=C(S[C@@H]3CN[C@H](C(=O)N(C)C)C3)[C@H](C)[C@H]12")
0

----------
Parameter Activity: see the listing below.
System: Bacteroides caccae
protocolText: Antimicrobial activity against Bacteroides caccae assessed as percent resistant isolates after 48 hrs by agar dilution method
Type: functional
endpointLabel: Activity (%)

>>> measuredvalue("CCN1CCN(C(=O)N[C@@H](C(=O)N[C@@H]2C(=O)N3[C@@H]2SC(C)(C)[C@@H]3C(=O)O)c2ccccc2)C(=O)C1=O")
51
>>> measuredvalue("Cc1ncc([N+](=O)[O-])n1CCO")
0
>>> measuredvalue("COc1c(N2C[C@@H]3CCCN[C@@H]3C2)c(F)cc2c(=O)c(C(=O)O)cn(C3CC3)c12")
18
>>> measuredvalue("CCC[C@@H]1C[C@@H](C(=O)N[C@@H]([C@H]2O[C@H](SC)[C@H](O)[C@@H](O)[C@H]2O)[C@H](C)Cl)N(C)C1")
68

----------
Test system: Clostridioides difficile
protocolText: Antimicrobial activity against Clostridium difficile after 48 hrs by agar dilution method
Assay type: functional
endpointLabel: MIC50 (µg/mL)

>>> measuredvalue("CCC[C@@H]1C[C@@H](C(=O)N[C@@H]([C@H]2O[C@H](SC)[C@H](O)[C@@H](O)[C@H]2O)[C@H](C)Cl)N(C)C1")
64
>>> measuredvalue("C[C@@H](O)[C@H]1C(=O)N2C(C(=O)O)=C(SCCNC=N)C[C@H]12 [IMIPENEM ANHYDROUS]")
4
>>> measuredvalue("C[C@@H](O)[C@H]1C(=O)N2C(C(=O)O)=C(S[C@@H]3CN[C@H](C(=O)N(C)C)C3)[C@H](C)[C@H]12")
2
>>> measuredvalue("CO[C@@]1(NC(=O)Cc2cccs2)C(=O)N2C(C(=O)O)=C(COC(N)=O)CS[C@@H]21")
64

----------
Test system: Phocaeicola vulgatus
protocolText: Antimicrobial activity against Bacteroides vulgatus assessed as percent resistant isolates after 48 hrs by agar dilution method
Assay type: functional
If the reported Activity equals or exceeds 20%, assign condition met. If not, assign condition not met.

>>> qualitativelabel("CO[C@@]1(NC(=O)Cc2cccs2)C(=O)N2C(C(=O)O)=C(COC(N)=O)CS[C@@H]21")
"condition not met"
>>> qualitativelabel("C[C@@H](O)[C@H]1C(=O)N2C(C(=O)O)=C(S[C@@H]3CN[C@H](C(=O)N(C)C)C3)[C@H](C)[C@H]12")
"condition not met"
>>> qualitativelabel("C[C@@H](O)[C@H]1C(=O)N2C(C(=O)O)=C(SCCNC=N)C[C@H]12 [IMIPENEM ANHYDROUS]")
"condition not met"
>>> qualitativelabel("O=C(N[C@H](CO)[C@H](O)c1ccc([N+](=O)[O-])cc1)C(Cl)Cl")
"condition not met"
>>> qualitativelabel("COc1c(N2C[C@@H]3CCCN[C@@H]3C2)c(F)cc2c(=O)c(C(=O)O)cn(C3CC3)c12")
"condition not met"
>>> qualitativelabel("CCC[C@@H]1C[C@@H](C(=O)N[C@@H]([C@H]2O[C@H](SC)[C@H](O)[C@@H](O)[C@H]2O)[C@H](C)Cl)N(C)C1")
"condition met"
>>> qualitativelabel("CO[C@@]1(NC(=O)C2SC(=C(C(N)=O)C(=O)O)S2)C(=O)N2C(C(=O)O)=C(CSc3nnnn3C)CS[C@@H]21 (some centres undefined)")
"condition met"
>>> qualitativelabel("CCN1CCN(C(=O)N[C@@H](C(=O)N[C@@H]2C(=O)N3[C@@H]2SC(C)(C)[C@@H]3C(=O)O)c2ccccc2)C(=O)C1=O")
"condition met"
>>> qualitativelabel("Cc1ncc([N+](=O)[O-])n1CCO")
"condition not met"
